ASSAY_TARGET: bovine serum albumin (BSA) (Bos taurus)
ASSAY_DETAILS: Function test 1: static BSA binding capacity of ligand-functionalized regenerated cellulose membranes (BCA method)
SETTINGS: 0 mM NaCl; 20 mM piperazine, pH 6.0
The following compounds are shown together with reported BSA Static Capacity values.
Respond numerically; units are mg/m^2 and should not be typed.

Answered examples (3):
| COMPOUND | BSA Static Capacity (mg/m^2) |
| --- | --- |
| C[N+](C)(C)CCN.[Cl-] [AETMA, 2-aminoethyltrimethylammonium chloride, reference compound] | 551 |
| Nc1nc2ccccc2[nH]1 [ABI, 2-aminobenzimidazole] | 414 |
| N=C(N)NCCCCN [AGM, Agmatine] | 1000 |

Entry N[C@H](CO)Cc1ccc(O)cc1 [TYR, Tyrosinol] has what BSA Static Capacity?
638

Field request: BSA Static Capacity | item: NCC(O)CN [DHP, 1,3-diamino-2-hydroxypropane]
946

* * *

Test system: neutral virus φX174
ASSAY_DETAILS: Function test 2: LRV for φX174 using functionalized membranes in flow mode, TE buffer pH 7.5
Format: binding, bacteriophage φX174
SETTINGS: 50 mM NaCl; TE buffer pH 7.5
Listed compounds paired with reported φX174 LRV
Just the number, please, no unit attached.

Example entries begin here.
| SMILES_ENTRY | φX174 LRV |
| --- | --- |
| N[C@H](CO)Cc1c[nH]c2ccccc12 | 1.1 |
| Nc1nc2ccccc2[nH]1 | 1.8 |
| N[C@H](CO)Cc1ccccc1 | 0.1 |

// switching to the query compound
Recorded φX174 LRV for NCCN(CCN)CCN , please?
5.8

* * *

BSA Static Capacity values by entry
ASSAY_TARGET: bovine serum albumin (BSA) (Bos taurus, UniProt P02769)
Sequence (P02769 25-607): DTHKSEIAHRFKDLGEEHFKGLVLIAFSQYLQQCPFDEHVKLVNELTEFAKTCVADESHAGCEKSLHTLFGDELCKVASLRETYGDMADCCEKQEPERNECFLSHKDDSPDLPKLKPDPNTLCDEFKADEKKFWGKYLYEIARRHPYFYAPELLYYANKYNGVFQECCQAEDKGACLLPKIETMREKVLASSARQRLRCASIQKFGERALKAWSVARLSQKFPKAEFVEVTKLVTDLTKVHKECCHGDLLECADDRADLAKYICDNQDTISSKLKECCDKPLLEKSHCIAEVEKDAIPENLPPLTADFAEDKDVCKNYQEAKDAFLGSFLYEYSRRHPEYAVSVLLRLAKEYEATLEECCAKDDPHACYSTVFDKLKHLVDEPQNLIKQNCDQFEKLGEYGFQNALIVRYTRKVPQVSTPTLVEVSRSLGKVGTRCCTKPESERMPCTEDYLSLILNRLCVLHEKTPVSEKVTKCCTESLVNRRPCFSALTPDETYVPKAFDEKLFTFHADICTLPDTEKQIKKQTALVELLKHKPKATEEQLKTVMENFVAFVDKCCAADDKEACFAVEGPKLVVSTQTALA
ASSAY_DETAILS: Function test 1: static BSA binding capacity of ligand-functionalized regenerated cellulose membranes (BCA method)
SETTINGS: 0 mM NaCl; 20 mM piperazine, pH 6.0
Please give a number only; it is taken to be in mg/m^2.

A selection of reference data follows.
| COMPOUND | DISPLAY_UNIT | BSA Static Capacity |
| --- | --- | --- |
| NCC(O)c1ccc(O)cc1 (stereo not drawn) | mg/m^2 | 280 |
| N[C@H](CO)Cc1ccccc1 | mg/m^2 | 330 |

Next compound, BSA Static Capacity to be filled in.
Find the recorded BSA Static Capacity belonging to N[C@H](CO)Cc1c[nH]c2ccccc12 and report it.
668
